- Subject Of Test: BN/GRP receptor-positive MCF7 human breast cancer cells (Homo sapiens, UniProt P30550)
- Construct: BN/GRP receptor-positive MDA-MB-231, MCF7, T47D human breast cancer, and PC3 human prostate cancer lines; intact cells
- Measurement Protocol: Saturation binding assay on MCF7 cells
- Test Context: ~300,000 cells, 0.1-25 nM radiopeptide, 60 min, room temperature, n = 3-5 experiments, mean ± SD
- Method: The cell binding of ^68Ga-radiolabeled peptides into BN/GRP receptor-positive MDA-MB-231, MCF7, T47D human breast cancer, and PC3 human prostate cancer lines (American Type Culture Collection, Rockville, MD, USA) was performed according to the method described previously. […] The initial concentrations of ^68Ga-labeled peptides were determined according to a well-established HPLC technique with simultaneous detection by UV absorbance. […]
Numbered stars: 1 amine (or outer) side, 2 acyl side, 3 side chain; on linkers, the order of the positions; unused ones are H or OH. Square brackets hold non-standard residues; d marks the D form. Peptide text beside a SMILES is read from it. * marks the point of attachment. DOTA = O=C(O)CN1CCN(CC(=O)O)CCN(CC(=O)*)CCN(CC(=O)O)CC1; Cha = N[C@@H](CC1CCCCC1)C(=O)O; X1 = O=C(CCC(=O)[*:2])CN[*:1]; Nle = CCCC[C@H](N)C(=O)O
Readout Name: pKd
API: returns pKd as number; meaning -log10 of concentration in mol/L.

Report the value of pKd obtained on BN/GRP receptor-positive MCF7 human breast cancer cells (Homo sapiens, UniProt P30550) for CCCC[C@H](NC(=O)[C@H](Cc1c[nH]cn1)NC(=O)[C@H](CC1CCCCC1)NC(=O)[C@@H](NC(=O)[C@H](C)NC(=O)[C@H](Cc1c[nH]c2ccccc12)NC(=O)[C@H](CCC(N)=O)NC(=O)[C@H](CS)NC(=O)CNC(=O)CNC(=O)CCC(=O)CNC(=O)CN1CCN(CC(=O)O)CCN(CC(=O)O)CCN(CC(=O)O)CC1)C(C)C)C(=O)N[C@@H](CCSC)C(N)=O [^68Ga-DOTA-ALA-BN Tris-, metal not drawn] ({DOTA}-[X1]GGCQWAV[Cha]H[Nle]M-NH2) . 7.91

----------
- System: MDA-MB-231 tumors
- Measurement Protocol: in vivo
- Format: in vivo, nude mice
- Test Context: female, nude, mouse, in vivo, 2 h
Square brackets hold non-standard residues; d marks the D form. Peptide text beside a SMILES is read from it. * marks the point of attachment. DOTA = O=C(O)CN1CCN(CC(=O)O)CCN(CC(=O)*)CCN(CC(=O)O)CC1; Cha = N[C@@H](CC1CCCCC1)C(=O)O; Nle = CCCC[C@H](N)C(=O)O; Ahx = NCCCCCC(=O)O
Readout Name: Uptake in Liver (% ID/g)
// units = % ID/g; emit number, no label

Indicate the recorded Uptake in Liver value for this molecule: CCCC[C@H](NC(=O)[C@H](Cc1c[nH]cn1)NC(=O)[C@H](CC1CCCCC1)NC(=O)[C@@H](NC(=O)[C@H](C)NC(=O)[C@H](Cc1c[nH]c2ccccc12)NC(=O)[C@H](CCC(N)=O)NC(=O)[C@H](CS)NC(=O)CNC(=O)CNC(=O)CCCCCNC(=O)CN1CCN(CC(=O)O)CCN(CC(=O)O)CCN(CC(=O)O)CC1)C(C)C)C(=O)N[C@@H](CCSC)C(N)=O [^68Ga-DOTA-Ahx-BN Cyclen, metal not drawn] ({DOTA-Ahx}-GGCQWAV[Cha]H[Nle]M-NH2) 0.91

----------
- Measurement Protocol: in vivo
- Parameters: species or system Balb/c mice
- Test Context: Balb/c, mouse, iv, 2 h
Numbered stars: 1 amine (or outer) side, 2 acyl side, 3 side chain; on linkers, the order of the positions; unused ones are H or OH. Square brackets hold non-standard residues; d marks the D form. Peptide text beside a SMILES is read from it. * marks the point of attachment. DOTA = O=C(O)CN1CCN(CC(=O)O)CCN(CC(=O)*)CCN(CC(=O)O)CC1; Cha = N[C@@H](CC1CCCCC1)C(=O)O; X1 = O=C(CCC(=O)[*:2])CN[*:1]; 4Abz = Nc1ccc(C(=O)O)cc1; Nle = CCCC[C@H](N)C(=O)O; Ahx = NCCCCCC(=O)O
Readout Name: %ID excreted in Urine (%ID)
The reply should be a number in %ID, with the unit left off.

Previously resolved entries follow.
[[record]]
compound = "CCCC[C@H](NC(=O)[C@H](Cc1c[nH]cn1)NC(=O)[C@H](CC1CCCCC1)NC(=O)[C@@H](NC(=O)[C@H](C)NC(=O)[C@H](Cc1c[nH]c2ccccc12)NC(=O)[C@H](CCC(N)=O)NC(=O)[C@H](CS)NC(=O)CNC(=O)CNC(=O)CCC(=O)CNC(=O)CN1CCN(CC(=O)O)CCN(CC(=O)O)CCN(CC(=O)O)CC1)C(C)C)C(=O)N[C@@H](CCSC)C(N)=O [^68Ga-DOTA-ALA-BN Cyclen, metal not drawn] ({DOTA}-[X1]GGCQWAV[Cha]H[Nle]M-NH2)"
readout_unit = "%ID"
reported = 46.0

[[record]]
compound = "CCCC[C@H](NC(=O)[C@H](Cc1c[nH]cn1)NC(=O)[C@H](CC1CCCCC1)NC(=O)[C@@H](NC(=O)[C@H](C)NC(=O)[C@H](Cc1c[nH]c2ccccc12)NC(=O)[C@H](CCC(N)=O)NC(=O)[C@H](CS)NC(=O)CNC(=O)CNC(=O)CCCCCNC(=O)CN1CCN(CC(=O)O)CCN(CC(=O)O)CCN(CC(=O)O)CC1)C(C)C)C(=O)N[C@@H](CCSC)C(N)=O [^68Ga-DOTA-Ahx-BN Tris-, metal not drawn] ({DOTA-Ahx}-GGCQWAV[Cha]H[Nle]M-NH2)"
readout_unit = "%ID"
reported = 69.0

[[record]]
compound = "CCCC[C@H](NC(=O)[C@H](Cc1c[nH]cn1)NC(=O)[C@H](CC1CCCCC1)NC(=O)[C@@H](NC(=O)[C@H](C)NC(=O)[C@H](Cc1c[nH]c2ccccc12)NC(=O)[C@H](CCC(N)=O)NC(=O)[C@H](CS)NC(=O)CNC(=O)CNC(=O)c1ccc(NC(=O)CN2CCN(CC(=O)O)CCN(CC(=O)O)CCN(CC(=O)O)CC2)cc1)C(C)C)C(=O)N[C@@H](CCSC)C(N)=O [^68Ga-DOTA-Abz-BN Tris-, metal not drawn] ({DOTA-4Abz}-GGCQWAV[Cha]H[Nle]M-NH2)"
readout_unit = "%ID"
reported = 50.0


Alright, here's another compound for you.
Quickly give me recorded %ID excreted in Urine for CCCC[C@H](NC(=O)[C@H](Cc1c[nH]cn1)NC(=O)[C@H](CC1CCCCC1)NC(=O)[C@@H](NC(=O)[C@H](C)NC(=O)[C@H](Cc1c[nH]c2ccccc12)NC(=O)[C@H](CCC(N)=O)NC(=O)[C@H](CS)NC(=O)CNC(=O)CNC(=O)CCC(=O)CNC(=O)CN1CCN(CC(=O)O)CCN(CC(=O)O)CCN(CC(=O)O)CC1)C(C)C)C(=O)N[C@@H](CCSC)C(N)=O [^68Ga-DOTA-ALA-BN Tris-, metal not drawn] ({DOTA}-[X1]GGCQWAV[Cha]H[Nle]M-NH2) 78.0

Where these numbers come from: paper PMC6733935
